Measured IC50, listed per entry for reference.
Biological target: JAK3 (Homo sapiens)
Construct: purchased Invitrogen Corporation, Carlsbad, Calif; PV4080
Sequence (P52333 whole entry): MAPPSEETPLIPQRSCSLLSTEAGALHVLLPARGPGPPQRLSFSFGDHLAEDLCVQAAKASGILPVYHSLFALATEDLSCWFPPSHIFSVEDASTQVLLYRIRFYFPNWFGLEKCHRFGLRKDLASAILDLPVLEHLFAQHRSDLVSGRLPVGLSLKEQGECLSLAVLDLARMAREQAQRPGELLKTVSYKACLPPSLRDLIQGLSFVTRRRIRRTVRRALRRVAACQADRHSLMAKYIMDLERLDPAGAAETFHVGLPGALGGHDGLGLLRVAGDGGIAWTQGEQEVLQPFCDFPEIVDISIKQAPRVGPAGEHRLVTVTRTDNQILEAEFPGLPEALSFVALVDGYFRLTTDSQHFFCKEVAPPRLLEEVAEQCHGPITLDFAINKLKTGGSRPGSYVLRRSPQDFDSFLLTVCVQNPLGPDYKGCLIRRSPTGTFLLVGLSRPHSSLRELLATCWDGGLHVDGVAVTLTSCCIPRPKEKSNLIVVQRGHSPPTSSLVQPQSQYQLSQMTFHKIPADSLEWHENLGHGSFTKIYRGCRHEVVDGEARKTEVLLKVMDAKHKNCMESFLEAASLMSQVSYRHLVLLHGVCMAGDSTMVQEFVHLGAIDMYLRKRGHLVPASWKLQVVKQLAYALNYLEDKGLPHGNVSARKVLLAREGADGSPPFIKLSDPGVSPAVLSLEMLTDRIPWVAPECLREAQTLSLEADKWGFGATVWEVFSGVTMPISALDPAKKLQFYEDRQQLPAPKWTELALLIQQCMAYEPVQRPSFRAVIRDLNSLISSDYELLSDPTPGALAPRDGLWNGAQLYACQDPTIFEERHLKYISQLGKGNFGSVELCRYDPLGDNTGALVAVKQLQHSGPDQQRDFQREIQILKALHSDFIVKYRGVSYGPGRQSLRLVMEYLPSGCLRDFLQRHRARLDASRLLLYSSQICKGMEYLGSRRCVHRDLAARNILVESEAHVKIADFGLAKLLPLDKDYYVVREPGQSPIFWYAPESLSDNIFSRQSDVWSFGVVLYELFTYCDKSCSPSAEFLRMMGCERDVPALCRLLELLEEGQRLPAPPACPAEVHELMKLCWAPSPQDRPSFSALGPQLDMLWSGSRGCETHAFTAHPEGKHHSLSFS
Assay: JAK3 Inhibition Assay (Omnia kinase fluorescence peptide substrate assay)
Type: biochemical
Conditions: averaged IC50 ranges; assay of Example D; 10 μM (Km app) or 1 mM ATP, 2.5 nM JAK3
Structures can show the parent of a compound that is named as a salt.

{"columns": ["Compound", "IC50"],
 "data": [
  ["Cn1cc(-c2cc3nccn3c(-c3ccn(C(CC#N)C4CC4)c3)n2)cn1 (centres unmarked)", "100 to 1000 nM"],
  ["Cn1cc(-c2cc3nccn3c(-c3cnn(C4(CC#N)CCN(S(=O)(=O)C(F)(F)F)C4)c3)n2)cn1 (centres unmarked)", "100 to 1000 nM"],
  ["Cc1cc(-c2cc3nccn3c(-c3cnn(C(CC#N)C4CC4)c3)n2)ccn1 (centres unmarked)", "> 1000 nM"],
  ["Cn1cc(-c2cc3nccn3c(-c3cnn(C4(CC#N)CN(CC#N)C4)c3)n2)cn1", "> 1000 nM"],
  ["Cn1cc(-c2cc3nccn3c(-c3cnn(C4(CC#N)CN(Cc5ccccc5)C4)c3)n2)cn1", "> 1000 nM"],
  ["Cn1cc(-c2cc3nccn3c(-c3ccn(C4(CC#N)CNC4)n3)n2)cn1 [Example 130, hydrochloride]", "> 1000 nM"],
  ["N#CCC1(n2cc(-c3nc(-c4cnn(C5CCC5)c4)cc4nccn34)cn2)CN(CC(F)(F)F)C1", "100 to 1000 nM"],
  ["N#CCC(C1CC1)n1cc(-c2nc(-c3cncs3)cc3nccn23)cn1 (centres unmarked)", "> 1000 nM"]
]}

----------
Where a name gives a salt, the structure may show the parent alone.
So I've got IC50 readings for JAK2 (Homo sapiens), take a look.

{"columns": ["Compound", "IC50"],
 "data": [
  ["Cn1cc(-c2cc3nccn3c(-c3cnn(C(CC#N)CC(C)(C)C)c3)n2)cn1 (stereo not shown)", "100 to 1000 nM"],
  ["Cn1cc(-c2cc3nccn3c(-c3cnn(C4(CC#N)CC5(CCCC5)C4)c3)n2)cn1", "10 to 100 nM"],
  ["Cn1cc(-c2cc3nccn3c(-c3cnn(C4(CC#N)CN(CCC(F)(F)F)C4)c3)n2)cn1", "100 to 1000 nM"],
  ["Cc1ccc(-c2cc3nccn3c(-c3cnn(C(CC#N)C4CC4)c3)n2)cn1 (stereo not shown)", "100 to 1000 nM"],
  ["N#CCC(C1CC1)n1cc(-c2nc(-c3cnn(C4CCOCC4)c3)cc3nccn23)cn1 (stereo not shown)", "10 to 100 nM"],
  ["Cn1cc(-c2ccc(-c3cc4nccn4c(-c4cnn(C(CC#N)C5CC5)c4)n3)cc2)cn1 (stereo not shown)", "10 to 100 nM"],
  ["Cn1cc(-c2cc3nccn3c(-c3cnn(C(CC#N)C4CC4(F)F)c3)n2)cn1 (mixture of isomers)", "10 to 100 nM"],
  ["Cn1cc(-c2cc3nccn3c(-c3cnn(C4(CC#N)CCCC4)c3)n2)cn1", "100 to 1000 nM"],
  ["CCS(=O)(=O)N1CC(CC#N)(n2cc(-c3nc(-c4cnn(C)c4)cc4nccn34)cn2)C1", "10 to 100 nM"],
  ["Cn1cc(-c2cc3nccn3c(-c3cnn(C4(CC#N)CCCCC4)c3)n2)cn1", "100 to 1000 nM"],
  ["Cn1cc(-c2cc3nccn3c(-c3cnn(C4(CC#N)CN(C(=O)OC(C)(C)C)C4)c3)n2)cn1", "100 to 1000 nM"],
  ["CC(C#N)Cn1cc(-c2nc(-c3ccc(N4CCOCC4)cc3)cc3nccn23)cn1 (stereo not shown)", "10 to 100 nM"],
  ["Cn1cc(-c2cc3nccn3c(-c3cnn(C4(CC#N)CCN(S(=O)(=O)C(F)(F)F)C4)c3)n2)cn1 (stereo not shown)", "10 to 100 nM"],
  ["CN1CCN(c2ccc(-c3cc4nccn4c(-c4cnn(C5(CC#N)CN(CC(F)(F)F)C5)c4)n3)cc2)CC1", "10 to 100 nM"],
  ["CC(C)(C)NC(=O)c1cc2nccn2c(-c2cnn(C(CC#N)C3CC3)c2)n1 (stereo not shown)", "> 1000 nM"],
  ["Cn1cc(-c2cc3nccn3c(-c3cnn(C(CC#N)c4cccnc4)c3)n2)cn1 (stereo not shown)", "10 to 100 nM"],
  ["N#CCC(C1CC1)n1cc(-c2nc(-c3cnc4n3CCNC4)cc3nccn23)cn1 (stereo not shown)", "100 to 1000 nM"],
  ["CC(C)CN1CC(CC#N)(n2cc(-c3nc(-c4cnn(C)c4)cc4nccn34)cn2)C1", "100 to 1000 nM"],
  ["Cn1cc(-c2cc3nccn3c(-c3cnn(C(CC#N)C4CC4)c3)n2)cn1 (single isomer, unassigned; enantiomer 1) [Example 3]", "100 to 1000 nM"],
  ["Cn1cc(-c2cc3nccn3c(-c3ccn(C4(CC#N)CNC4)n3)n2)cn1 [Example 130, hydrochloride]", "100 to 1000 nM"],
  ["Cn1cc(-c2cc3nccn3c(-c3cnn(C4(CC#N)CNC4)c3)n2)cn1 [Example 62, hydrochloride]", "> 1000 nM"],
  ["Cn1cc(-c2cc3nccn3c(-c3ccn(C4(CC#N)CN(C(=O)OC(C)(C)C)C4)n3)n2)cn1", "> 1000 nM"],
  ["Cn1cc(-c2cc3ncc(Cl)n3c(-c3cnn(C4(CC#N)CN(S(=O)(=O)C(F)(F)F)C4)c3)n2)cn1", "10 to 100 nM"],
  ["Cc1nn(C(CC#N)C2CCCC2)cc1-c1nc(-c2ccc(N3CCOCC3)cc2)cc2nccn12 (stereo not shown)", "10 to 100 nM"],
  ["CN1CCc2cc(-c3cc4nccn4c(-c4cnn(C(CC#N)C5CC5)c4)n3)ccc2C1 (stereo not shown)", "10 to 100 nM"],
  ["Cn1cc(-c2cc3nccn3c(-c3cnn(C4(CC#N)CN(CCC#N)C4)c3)n2)cn1", "100 to 1000 nM"],
  ["Cn1cc(-c2cc3nccn3c(-c3cnn(C4(CC#N)CN(S(=O)(=O)C5CC5)C4)c3)n2)cn1", "10 to 100 nM"],
  ["Cn1cc(-c2cc3nccn3c(-c3cnn(C4(CC#N)CN(S(C)(=O)=O)C4)c3)n2)cn1", "10 to 100 nM"],
  ["CC(=O)N1CC(CC#N)(n2cc(-c3nc(-c4cnn(C)c4)cc4nccn34)cn2)C1", "> 1000 nM"],
  ["Cn1cc(-c2cc3nccn3c(-c3ccn(C4(CC#N)CN(CC(F)(F)F)C4)c3)n2)cn1", "10 to 100 nM"],
  ["Cn1cc(-c2cc3nccn3c(-c3cnn(C4(CC#N)CN(C(=O)C5(C(F)(F)F)CC5)C4)c3)n2)cn1", "10 to 100 nM"]
]}

----------
Biological target: Human Tyk2 kinase domain (Homo sapiens, UniProt P29597)
Sequence (P29597 886-1187): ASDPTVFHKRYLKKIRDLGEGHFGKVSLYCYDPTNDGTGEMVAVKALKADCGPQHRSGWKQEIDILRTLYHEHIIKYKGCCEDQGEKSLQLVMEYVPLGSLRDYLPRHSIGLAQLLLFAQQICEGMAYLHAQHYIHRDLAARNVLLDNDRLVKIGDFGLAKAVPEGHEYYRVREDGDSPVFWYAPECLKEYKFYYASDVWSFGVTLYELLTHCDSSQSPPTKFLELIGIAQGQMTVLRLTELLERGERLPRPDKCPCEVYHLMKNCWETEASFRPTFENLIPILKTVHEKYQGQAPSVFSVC
pIC50: −log10 of the molar value.
Measured pIC50, listed per entry for reference.

{"columns": ["Compound", "Target desc", "pIC50"],
 "data": [
  ["Cc1ncc(-c2cc3nccn3c(-c3cnn(C(CC#N)C4CC4)c3)n2)s1 (centres unmarked)", "Human Tyk2 kinase domain (Homo sapiens, UniProt P29597)", "7.00 to 8.00"],
  ["Cn1cc(-c2cc3nccn3c(-c3cnn(C(CC#N)C(C)(C)C)c3)n2)cn1 (centres unmarked)", "Human Tyk2 kinase domain (Homo sapiens, UniProt P29597)", "7.00 to 8.00"],
  ["Cc1c(-c2nc(-c3cnn(C)c3)cc3nccn23)cnn1CCC#N", "Human Tyk2 kinase domain (Homo sapiens, UniProt P29597)", "6.00 to 7.00"],
  ["CN1CCN(CCn2cc(-c3cc4nccn4c(-c4cnn(C(CC#N)C5CC5)c4)n3)cn2)CC1 (centres unmarked)", "Human Tyk2 kinase domain (Homo sapiens, UniProt P29597)", "7.00 to 8.00"],
  ["CN1CCN(c2ccc(-c3cc4nccn4c(-c4cnn(C5(CC#N)CN(S(=O)(=O)C(F)(F)F)C5)c4)n3)cc2)CC1", "Human Tyk2 kinase domain (Homo sapiens, UniProt P29597)", "> 8.00"],
  ["Cn1cc(-c2cc3nccn3c(-c3cnn(C4(CC#N)CN(CC(F)(F)F)C4)c3)n2)cn1", "Human Tyk2 kinase domain (Homo sapiens, UniProt P29597)", "> 8.00"],
  ["Cn1cc(-c2cc3nccn3c(-c3ccn(C4(CC#N)CN(C(=O)OC(C)(C)C)C4)n3)n2)cn1", "Human Tyk2 kinase domain (Homo sapiens, UniProt P29597)", "6.00 to 7.00"],
  ["CCS(=O)(=O)N1CC(CC#N)(n2cc(-c3nc(-c4cnn(C)c4)cc4nccn34)cn2)C1", "Human Tyk2 kinase domain (Homo sapiens, UniProt P29597)", "> 8.00"],
  ["Cn1cc(-c2cc3nccn3c(-c3cnn(C4(CC#N)CN(CC(F)(F)C(F)(F)F)C4)c3)n2)cn1", "Human Tyk2 kinase domain (Homo sapiens, UniProt P29597)", "> 8.00"],
  ["Cn1cc(-c2cc3nccn3c(-c3ccn(C4(CC#N)CN(S(=O)(=O)C5CC5)C4)c3)n2)cn1", "Human Tyk2 kinase domain (Homo sapiens, UniProt P29597)", "> 8.00"],
  ["Cn1cc(-c2cc3nccn3c(-c3cnn(C(CC#N)c4cccc(C(F)(F)F)c4)c3)n2)cn1 (centres unmarked)", "Human Tyk2 kinase domain (Homo sapiens, UniProt P29597)", "> 8.00"],
  ["CC(=O)N1CCC(CC#N)(n2cc(-c3nc(-c4cnn(C)c4)cc4nccn34)cn2)C1 (centres unmarked)", "Human Tyk2 kinase domain (Homo sapiens, UniProt P29597)", "6.00 to 7.00"],
  ["Cn1cc(-c2cc3nccn3c(-c3cnn(C(CC#N)C4CC4(F)F)c3)n2)cn1 (mixture of isomers)", "Human Tyk2 kinase domain (Homo sapiens, UniProt P29597)", "> 8.00"],
  ["N#CCC(C1CCCC1)n1cc(-c2nc(-c3ccc(N4CCOCC4)cc3)cc3nccn23)cn1 (single isomer, unassigned) [Example 114]", "Human Tyk2 kinase domain (Homo sapiens, UniProt P29597)", "> 8.00"]
]}

Where do these numbers come from? They come from patent US8962596B2.
